This collection of values is drawn from patent US8268815B2.

- tested on: human dopamine D2L receptors (long isoform) (Homo sapiens)
- Construct: expressed in transfected cells
- Sequence (P14416 whole entry, canonical isoform): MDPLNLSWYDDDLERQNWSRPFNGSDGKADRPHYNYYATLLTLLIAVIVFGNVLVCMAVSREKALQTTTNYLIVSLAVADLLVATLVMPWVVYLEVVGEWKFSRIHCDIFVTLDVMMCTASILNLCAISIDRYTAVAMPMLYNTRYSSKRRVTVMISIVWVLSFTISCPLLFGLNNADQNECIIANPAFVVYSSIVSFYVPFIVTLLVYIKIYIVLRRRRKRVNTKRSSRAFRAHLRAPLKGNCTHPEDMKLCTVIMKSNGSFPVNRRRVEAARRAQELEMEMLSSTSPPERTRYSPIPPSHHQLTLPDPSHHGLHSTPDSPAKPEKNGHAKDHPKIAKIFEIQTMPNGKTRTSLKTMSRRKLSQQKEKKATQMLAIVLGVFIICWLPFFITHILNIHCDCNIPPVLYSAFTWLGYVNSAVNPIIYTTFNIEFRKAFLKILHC
- assay details: Dopamine D2L receptor binding, displacement of [125I]-iodospiperone
- condition: ratio Ki(D2L)/Ki(D3); HEK-293 membranes
Please provide measured Selectivity vs. D2L (Ki(D2L)/Ki(D3)) for the entries that follow.

CC(C)(C)c1nc(N2CCN(CCCN3C(=O)COc4ccccc43)CC2)cc(C(F)(F)F)n1 [Example 2] : 29
CCCc1cc(N2CCN(CCCCN3C(=O)CCC4=C3CCCC4=O)CC2)nc(C(C)(C)C)n1 [Example 44] : 29
CCCc1cc(N2CCN(CCCCN3C(=O)CCCc4c(OC)cccc43)CC2)nc(C(C)(C)C)n1 [Example 54] : 25
CC(C)(C)c1nc(N2CCN(CCCN3C(=O)CCc4ccccc43)CC2)cc(C(F)(F)F)n1.Cl [Example 1] : 37
CC(C)(C)c1nc(C(F)F)cc(N2CCN(CCCCN3C(=O)CCc4c(O)cccc43)CC2)n1 [Example 36] : 41
CCCc1cc(N2CCN(CCCCN3C(=O)CCc4c(OC)cccc43)CC2)nc(C(C)(C)C)n1 [Example 33] : 65

For each listed entry, give its Selectivity vs. D2L (Ki(D2L)/Ki(D3)).
1. CC(C)(C)c1nc(N2CCN(CCCCN3C(=O)CCC4=C3CCCC4=O)CC2)cc(C(F)(F)F)n1 [Example 45]
2. CCCc1cc(N2CCN(CCCCN3C(=O)CCc4ccccc43)CC2)nc(C(C)(C)C)n1 [Example 37]
3. CCCc1cc(N2CCN(CCCCN3C(=O)CCCc4c(O)cccc43)CC2)nc(C(C)(C)C)n1 [Example 56]

Response:
1. 41
2. 38
3. 26

====

- tested on: human dopamine D3 receptors (Homo sapiens)
- Sequence (P35462 whole entry): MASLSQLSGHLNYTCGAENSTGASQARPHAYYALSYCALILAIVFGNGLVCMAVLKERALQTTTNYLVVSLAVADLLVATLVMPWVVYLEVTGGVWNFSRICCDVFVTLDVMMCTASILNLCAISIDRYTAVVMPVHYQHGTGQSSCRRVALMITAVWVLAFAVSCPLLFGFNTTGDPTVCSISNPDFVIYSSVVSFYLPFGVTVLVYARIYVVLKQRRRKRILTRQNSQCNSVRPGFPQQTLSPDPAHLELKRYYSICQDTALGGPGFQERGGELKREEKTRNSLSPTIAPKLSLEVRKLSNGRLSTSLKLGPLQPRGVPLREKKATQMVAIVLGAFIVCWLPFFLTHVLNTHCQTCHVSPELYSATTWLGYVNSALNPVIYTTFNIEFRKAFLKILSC
Returns: string. Value is y if measured Ki is below 2 nM, and n if it is greater than or equal to it.

CC(C)(C)c1nc(N2CCN(C/C=C/CN3C(=O)CCc4ccccc43)CC2)cc(C(F)(F)F)n1 : n
CCCc1cc(N2CCN(CCCCN3C(=O)CCC4=C3CCCC4=O)CC2)nc(C(C)(C)C)n1 : y

Query: Find out if reported Ki for CCCc1cc(N2CCN(CCCCN3C(=O)CCCc4c(OC)cccc43)CC2)nc(C(C)(C)C)n1 is less than 2 nM
Response: n

Query: Please state whether Ki is below 2 nM for CC(C)(C)c1nc(C(F)F)cc(N2CCN(CCCCN3C(=O)CCc4c(O)cccc43)CC2)n1
Response: y

Query: For this compound, is Ki lower than 2 nM? CC(C)(C)c1nc(N2CCN(CCCCN3C(=O)CCC4=C3CCCC4=O)CC2)cc(C(F)(F)F)n1
Response: n

Query: Ki under 2 nM? Item: CCCc1cc(N2CCN(CCCCN3C(=O)CCCc4c(O)cccc43)CC2)nc(C(C)(C)C)n1
Response: y
